meta.source: ChEMBL document CHEMBL1201862

system: U-251; experiment: NCI tumour cell line growth inhibition, 48 h
The source made the active and inactive calls. Rule as the data show it: active = GI50 up to about 1.1 µM and inactive = higher.
Reported GI50 values are given for each entry in this list.

Consider the worked cases shown below.
CC(=O)/C(=N\O)C(=O)Nc1ccc(Cl)cc1Cl: > 100 µM (inactive)
Cc1nn(C(=O)c2ccncc2)c2c1C(c1cccc([N+](=O)[O-])c1)SC(=N)N2 (centres undefined): > 10 µM (inactive)
Oc1ccnc(SCc2ccc(Cl)cc2)n1: > 100 µM (inactive)

Entry C[C@]12CC[C@H](O)C[C@H]1CC[C@@H]1[C@@H]2CC[C@]2(C)[C@@H](C3=CC(=O)OC3)[C@@H](O)C[C@]12O [GITOXIGENIN] has what GI50?
2.22 µM (inactive)

----------
system: NCI-H522; assay: NCI tumour cell line growth inhibition, 48 h
Active and inactive are the calls of the source. Cut-off read from the data, not from the text of the source: active = GI50 up to about 1.1 µM and inactive = higher.
Reported GI50 values are given for each entry in this list.

Consider the worked cases shown below.
C[C@H](NS(=O)(=O)c1ccc(NC(=O)c2ccccc2)cc1)C(=O)O: > 100 µM (inactive)
O=[N+]([O-])c1cc(Cl)cc2cc(Br)cnc12: 29.6 µM (inactive)
CCCCNc1nc(N)nc(Nc2ccc(Br)cc2)c1N=O: 36.4 µM (inactive)

Entry Oc1ccccc1C1=NOC(c2ccc(C(F)(F)F)cc2)C1 (stereo not given) has what GI50?
> 50 µM (inactive)

Entry c1ccc2c(c1)SC1=Nc3sc4ccccc4[n+]3CN12 has what GI50?
2.7 µM (inactive)

Entry COc1cc([C@@H]2c3cc4c(cc3[C@@H](c3c(O)cc(O)c5c3O[C@H](c3ccc(O)c(O)c3)[C@@H](O)C5)[C@H]3COC(=O)[C@H]23)OCO4)cc(OC)c1OC has what GI50?
14.1 µM (inactive)

Entry Cc1ccc(C(=O)N/N=C(\N=N\c2ccccc2Cl)c2ccc(N(C)C)cc2)cc1 has what GI50?
27.5 µM (inactive)

Entry O=c1c2ccccc2c2ccccc2c(=O)n1Cc1ccc2c(c1)OCO2 has what GI50?
30.8 µM (inactive)

Entry Clc1ccc(Oc2ccc(/N=C/c3ccc(Cl)cc3Cl)cc2Cl)cc1 has what GI50?
25.2 µM (inactive)

Entry CNC(Cc1ccccc1)c1cccc(OC)c1O (stereo not given) has what GI50?
> 100 µM (inactive)

----------
system: CAKI-1; test: NCI tumour cell line growth inhibition, 48 h
Active and inactive are the calls of the source. No stated cut-off is given here; in the data, active = GI50 up to about 1.1 µM and inactive = higher.
quantity: GI50

Consider the worked cases shown below.
O=c1cccc(Cl)[nH]1: > 100 µM (inactive)
COc1ccc2[nH]c3c(c2c1)CC(=O)N1CCC[C@H](C1)CC31OCCCO1: > 100 µM (inactive)
COC(=O)N/N=C(/CCC(=O)Nc1ccc(C)c(C)c1)CC(=O)C(C)(C)C: > 100 µM (inactive)
CC(C)(C)OC(=O)N/C=C1\C(=O)Oc2ccccc2C1=O: 15 µM (inactive)
COC(=O)N[C@@H]1C[C@H]2CC[C@]1(O[Si](C(C)C)(C(C)C)C(C)C)C(=O)C2: 23.9 µM (inactive)

// fetch CAKI-1 GI50 for O=c1oc2ccccc2c(Nc2ccc3c(c2)Sc2ccccc2O3)c1[N+](=O)[O-]
26.1 µM (inactive)

// fetch CAKI-1 GI50 for CC(C)=CCC[C@@H](C)C1=C(O)C(=O)C(C)=C(Nc2ccccc2)C1=O
15.1 µM (inactive)

// fetch CAKI-1 GI50 for O=C(O)c1c([N+](=O)[O-])cc(C(F)(F)F)cc1[N+](=O)[O-]
> 100 µM (inactive)

// fetch CAKI-1 GI50 for O=C(N/N=C/c1ccccc1)c1cccc2nc3ccccc3nc12
> 100 µM (inactive)

// fetch CAKI-1 GI50 for CCCCNC(=S)Nc1nc(C(=O)NNC(=S)NCc2ccccc2)cs1
29.6 µM (inactive)

// fetch CAKI-1 GI50 for Cc1cc(CN2CCCCC2)c(O)c(CN2CCCCC2)c1
> 100 µM (inactive)

// fetch CAKI-1 GI50 for CCCNC1=Nc2ccccc2NC(C)C1 (stereo unspecified)
> 100 µM (inactive)

----------
tested on: RPMI-8226; assay: NCI tumour cell line growth inhibition, 48 h
The source made the active and inactive calls. No stated cut-off is given here; in the data, active = GI50 up to about 1.1 µM and inactive = higher.
Thanks in advance; please answer with one of these: TRUE (active), FALSE (inactive)

Solved cases (5 shown):
O=C1/C(=C/c2cccs2)N=C(c2ccccc2)N1c1nc2ccccc2s1: FALSE
COc1cc(C2C3=C(COC3=O)Oc3cc4c(cc32)OCO4)cc(OC)c1OC(C)=O (centres undefined): TRUE
OC1CCCN(C2(c3cccs3)CCCCC2)C1 (centres undefined): FALSE
CCCCCCCCOCC(O)COC (centres undefined): FALSE
CCOC(=O)Cn1nnc2ccc(Nc3nc4ccccc4nc3-c3ccccc3)cc21: FALSE

Just curious, what result did CCOC(=O)C(C)c1nc2c(Cl)c3ncccc3cc2[nH]c1=O (centres undefined) get here?
FALSE

Just curious, what result did O=C(/C(=C/c1ccc(Cl)cc1)c1ccccc1)c1ccccc1 get here?
FALSE

Just curious, what result did O=C1CSc2ccnc(=O)n21 get here?
FALSE

Just curious, what result did C/C(CN1C(=O)c2ccccc2C1=O)=N\NS(=O)(=O)c1cccc([N+](=O)[O-])c1 get here?
FALSE

Just curious, what result did O=C1/C(=C/C=C/c2ccccc2)CCC1CNc1ccccc1 (centres undefined) get here?
FALSE

Just curious, what result did Clc1ccccc1C1N2CCCCC2[C@@H]2c3[nH]c4ccccc4c3CCN12 (some centres undefined) get here?
FALSE

Just curious, what result did O=C1C(CN2CCCCC2)CCCC1CN1CCCCC1 (centres undefined) get here?
FALSE

Just curious, what result did CCC12CC[C@H](C#N)N3CCc4c(n(c5ccccc45)C(=O)C1)C32 (some centres undefined) get here?
FALSE

Just curious, what result did CC1(C)CCCCCCC2OC2CCCCCC(C)(C)C1=O (centres undefined) get here?
FALSE

Just curious, what result did Nc1nc(N)c(N=O)c(Nc2ccc(O)cc2)n1 get here?
FALSE

Just curious, what result did COc1cc2cc3c4cc(OC)c(OC)cc4cc[n+]3c(C)c2cc1OC.O=C([O-])CS(=O)(=O)O get here?
FALSE

Just curious, what result did CC[C@H]1OC([C@H](O)C/C=C\C#C[Si](C)(C)C)C/C=C\C[C@H]1O[Si](C)(C)C(C)(C)C (some centres undefined) get here?
FALSE

Just curious, what result did Cn1c2ccccc2c(=O)c2cccc(C(=O)NC(CS)C(=O)O)c21 (centres undefined) get here?
FALSE

Just curious, what result did C=C[C@]1(O)CCC[C@]2(C)C(=O)CCC12C (some centres undefined) get here?
FALSE

Just curious, what result did CCCCCCCc1cscc1-c1cscc1Br get here?
FALSE

Just curious, what result did Clc1cc2nnn(C3CCCCO3)c2cc1Cl (centres undefined) get here?
FALSE

Just curious, what result did Nc1nc(O)c2[nH]cnc2[n+]1[O-] get here?
FALSE

Just curious, what result did CCOC(=O)C1=NOC2(C=C(Br)C(=O)C(Br)=C2)C1 get here?
TRUE

Just curious, what result did O=c1oc2ccccc2c(Nc2ccc3c(c2)Sc2ccccc2O3)c1[N+](=O)[O-] get here?
FALSE

----------
test system: HOP-18; experiment: NCI tumour cell line growth inhibition, 48 h
Active and inactive are the calls of the source. No stated cut-off is given here; in the data, active = GI50 up to about 1.1 µM and inactive = higher.
quantity: GI50

Consider the worked cases shown below.
N=C1NC(=O)N2CC12 (stereo unspecified) [IMEXON]: > 100 µM (inactive)
O=C1NC(=O)C2C(=O)NC(=O)C1C2c1c(Cl)cccc1Cl (stereo unspecified): > 100 µM (inactive)
COc1cc([C@@H]2c3cc4c(cc3[C@@H](NC(=O)c3ccc(OC(C)=O)cc3)C3COC(=O)[C@@H]32)OCO4)cc(OC)c1O (stereo partly specified): > 100 µM (inactive)
Nc1ccc(S(=O)(=O)Nc2cnc3ccccc3n2)cc1 [SULFAQUINOXALINE]: > 100 µM (inactive)
COc1cc(C=O)c(-c2cc3c(cc2C=O)OCO3)c(OC)c1OC: > 290 µM (inactive)

Entry NC(=O)OCC(COc1ccc(Cl)cc1)OC(=O)c1cc([N+](=O)[O-])cc([N+](=O)[O-])c1 (stereo unspecified) has what GI50?
> 100 µM (inactive)

Entry CC(C)(O)[C@@H]1CC[C@@]2(C)CCCC(O)C2(O)C1 (stereo partly specified) has what GI50?
> 100 µM (inactive)

Entry CCOC(=O)C[C@@]12CCCNC1(C)CCc1ccccc12 (stereo partly specified) has what GI50?
63.2 µM (inactive)

Entry COc1cc(C(C)c2cc3c(cc2OCCOCCOc2cc4c(cc2C(C)c2cc(OC)c(OC)c(OC)c2)OCO4)OCO3)cc(OC)c1OC (stereo unspecified) has what GI50?
> 10 µM (inactive)

Entry Nc1ncnc2c1ncn2C1C(O)C=C(CO)C1O (stereo unspecified) has what GI50?
> 625 µM (inactive)

Entry ClC/C=C/COC1CCCCO1 (stereo unspecified) has what GI50?
> 100 µM (inactive)

Entry COc1cc(CO)cc2c1[nH]c1ccccc12 [KOENOLINE] has what GI50?
> 25 µM (inactive)

Entry Cc1nc(Nc2ccc([N+](=O)[O-])cc2)sc1C(/C=C/c1ccc(N(C)C)cc1)=N/NC(=O)c1ccccc1 has what GI50?
72.8 µM (inactive)

Entry COc1ccc(Cc2c3cc(O)c([O-])cc3cc[n+]2C)cc1 has what GI50?
36.1 µM (inactive)

Entry NCC(Cl)C(O)c1c[nH]c(N)n1 (stereo unspecified) has what GI50?
0.275 µM (active)

Entry C=C(C)C1Cc2c(cc(O)c3c(=O)c4ccccc4n(C)c23)O1 (stereo unspecified) has what GI50?
16 µM (inactive)

Entry O=C1C(CN2CCCCC2)CCCC1CN1CCCCC1 (stereo unspecified) has what GI50?
17.2 µM (inactive)

Entry COc1cc2cnc3c4cc(OC(C)C)c(OC)cc4ccc3c2cc1OC has what GI50?
> 100 µM (inactive)

Entry Cc1c(OC(C)C(=O)O)ccc2c(-c3ccccc3)cc(=O)oc12 (stereo unspecified) has what GI50?
> 100 µM (inactive)

Entry N#Cc1cc([N+](=O)[O-])ccc1NC(=O)/C(=N\NC(=O)c1ccncc1)C(c1cnc2ccc([N+](=O)[O-])cc2n1)[N+](=O)[O-] (stereo unspecified) has what GI50?
1.5 µM (inactive)

Entry N#CC(C(=O)Nc1ccccc1)C1=C(Cl)C(=O)c2ccccc2C1=O (stereo unspecified) has what GI50?
10.7 µM (inactive)
